- measured-on: T1, ACVR2B-Fc fusion protein (human, UniProt Q13705 19-137)
- T1 construct: also called water-soluble ACVR2B
- T1 sequence: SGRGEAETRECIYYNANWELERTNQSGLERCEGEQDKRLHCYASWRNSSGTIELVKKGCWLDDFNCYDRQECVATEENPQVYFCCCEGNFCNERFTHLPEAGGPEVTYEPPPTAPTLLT
- measurement-description: phage ELISA, ACVR2B coated
Recorded OD490 by entry

binder: ACVR2B C07 (monoclonal scFv-phage) (scFv, V domains shown, also called C7) VH: QMQLVQSGGGLVKPGGSLRLSCAPSGFTFRDYHMSWIRQAPGKGLEWISNISNSGTNIYYADSVKGRFTISRDNAKNSLYLQMNSLRAEDTAVYYCARGHYGMDIWGQGTTITVSS VL: DIQMTQSPSSLSASVGDRVTITCRASQGIANYLAWYQQKPGKAPKLLIYAASTLQSGVPSRFSGSGSGTDFTLTISSLQPEDFATYYCQQVKSYPLSFGGGTKVEIK
OD490: 2.98 OD

binder: ACVR2B A06 (monoclonal scFv-phage) (scFv, V domains shown, also called A6) VH: VQLVQSGGGLVQPGRSLRLSCTASGFTFGDYAMSWVRQAPGKGLEWVGFIRSKRYDGTAEYAASVKGRFTISRDDSKNSLYLQMNSLRAEDTAVYYCARGHYAMDVWGQGTTVTVSS VL: DIQMTQSPSSLSASVGDRVTITCRASRSISNYLNWYQQKPGKAPKLLIYAASSLQSGVPSRFSGSGSGTDFTLTISSLQPEDFATYYCQQSYDTPFTFGLGNQLEIK
OD490: 2.96 OD

binder: ACVR2B D07 (monoclonal scFv-phage) (scFv, V domains shown, also called D7) VH: QVQLVQSGAEVKKPGASVKVSCKASGYTFTSYYMHWVRQAPGQGLEWMGIINPSGGSTSYAQKFQGRVTMTRDTSTSTVYMELSSLRSEDTAVYYCAKDQSRGWYSNFDSWGQGTLVTVSS VL: DIQMTQSPSTLSASVGDRVTITCRASQTVSNWLAWYQLKPGKAPKLLIYKASSLESGVPSRFSGTGSETEFTLTISSLQPDDFATYYCQQYHSYPITFGQGTRLEIK
OD490: 2.66 OD

binder: ACVR2B B11 (monoclonal scFv-phage) (scFv, V domains shown) VH: VQLVESGGGLVQPGRSLRLSCAASGFTFDNHAMHWVRRAPGKGLEWVSGISWNGGTTAYADSVKGRFSIFRDNAEKSLYLQMNSLRAEDTAVYYCARGSSSGRYYFDYWGQGTLVTVSS VL: DIQMTQSPSSVSASVGDRVTITCRASQGISTYLNWYQHQSGKAPKLLIYGAFRLQSGVPSRFSGSGSGTDFTLTISNLQPEDFATYYCQQAKNFPLTFGGGTKVDIK
OD490: 2.99 OD
